details: in THF, 283.15 K
Quantity Name: solubility (mole fraction)
Form: value (number only, do not type unit).

Documented solubility (mole fraction) of `CC1(C)[C@@H](O)CC[C@]2(C)[C@H]3C(=O)C=C4[C@@H]5C[C@@](C)(C(=O)O)CC[C@]5(C)CC[C@@]4(C)[C@]3(C)CC[C@@H]12` : 0.077

----------
details: in ethanol, 283.15 K
Quantity Name: solubility (mole fraction)
A bare number is all that is needed in reply.

Record `CC1(C)[C@@H](O)CC[C@]2(C)[C@H]3C(=O)C=C4[C@@H]5C[C@@](C)(C(=O)O)CC[C@]5(C)CC[C@@]4(C)[C@]3(C)CC[C@@H]12` . Reported solubility (mole fraction): 0.0112
